AUC(0-t) values by entry
# assay-notes: Pharmacokinetic (PK) analysis in rats
# Assay type: in vivo, Sprague Dawley (SD) rats
# condition-details: Sprague-Dawley, rat, plasma, po; SD rats, single intragastric administration, 5 mg/kg; read-out: Area Under Curve AUC0-t
# Description: 1) 0.2 ml of intravenous blood was collected and placed in a K2EDTA test tube. The blood was centrifuged at room temperature at the speed of 1000˜3000×g for 5˜20 minutes to isolate the plasma, which was then stored at −80° C. 2) 160 μL of acetonitrile was added to 40 μL of plasma sample for precipitation, and then the mixture was centrifuged at the speed of 500˜2000×g for 5˜20 minutes. 3) 100 μL of treated solution was taken, and the concentration of the test compound was analyzed by LC/MS/MS. […]
Output spec: scalar in ng·h/mL, unitless text.

Here are 3 compounds together with their reported answers.
                                   compound  observable  units_of_measure  readout_number
0  COC[C@@H](C)Oc1cc(NC(=O)N2CCCc3cc(CN4C(=O)OCC45CC5)c(C=O)nc32)ncc1C#N [Example 42]    AUC(0-t)           ng·h/mL            6670
1  CO[C@@H]1CCCC1Oc1cc(NC(=O)N2CCCc3cc(CN4CCOCC4=O)c(C=O)nc32)ncc1C#N (stereo partly shown) [Example 16]    AUC(0-t)           ng·h/mL            5520
2  COCCSc1cc(NC(=O)N2CCCc3cc(CN4CCOCC4=O)c(C=O)nc32)ncc1C#N [Example 13]    AUC(0-t)           ng·h/mL            3510

Now look at this one.
AUC(0-t) reported for this compound COC1CCN(c2cc(NC(=O)N3CCCc4cc(CN5CCOCC5=O)c(C=O)nc43)ncc2C#N)C1 (stereo not shown) [Example 4] : 8740
